The measured values listed here are drawn from paper PMC10397247.

Give measured interaction score for each item. Keep answers brief.
- SYSTEM UNDER TEST: T1, 4H3865-AA
- T1 chain: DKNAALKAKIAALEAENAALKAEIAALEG
- ASSAY OVERVIEW: two-hybrid library CCmax;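 note: natural log of median RNA to DNA barcode read ratio; higher means stronger binding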
- EXPERIMENTAL SETUP: mean of both orientations
The answer should be a number; do not append a unit.

I have this binder here, DKNAALKAENAALEAKIAALKAEIAALEG [4H3753-AA] , and I need its recorded interaction score. -1.43

Try this binder too: DKIAALEAKNAALKAKNAALKAEIAALEG [4H2553-AA] -1.79

Try this binder too: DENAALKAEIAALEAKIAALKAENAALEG [4H1579-AA] -1.22

Try this binder too: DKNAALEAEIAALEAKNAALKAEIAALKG [4H3130-AA] 1.11
